# System Under Test: T1, cynomolgus monkey KLK5 (cynomolgus monkey, UniProt Q9Y337 67-293 (human entry))
# T1 construct: also called cyno KLK5
# T1 chain: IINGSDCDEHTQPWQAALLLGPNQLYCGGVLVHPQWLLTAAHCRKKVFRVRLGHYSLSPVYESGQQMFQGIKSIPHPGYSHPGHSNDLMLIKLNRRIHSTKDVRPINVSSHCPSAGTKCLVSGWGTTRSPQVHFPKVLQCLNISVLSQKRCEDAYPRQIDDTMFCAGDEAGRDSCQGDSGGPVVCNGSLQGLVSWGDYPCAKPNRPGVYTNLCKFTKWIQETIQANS
# Experimental Details: SPR, one-armed monovalent antibody
Kindly supply the reported kon values for the records listed here.
Note: a bare number is incomplete; add the unit.

Incoming: Which kon value is on record for OA.hu.9H5.H14L4.G54A.H89V.S95Y (antibody, V domains shown, One-armed (OA) monovalent anti-KLK5 antibody with a human IgG1 Fc, with Q38E/Q39K; constant regions and dummy Fc chain not specified) VH: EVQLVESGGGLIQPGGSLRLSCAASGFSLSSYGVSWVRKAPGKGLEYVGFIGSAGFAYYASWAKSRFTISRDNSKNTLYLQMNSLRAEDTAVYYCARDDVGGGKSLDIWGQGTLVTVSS VL: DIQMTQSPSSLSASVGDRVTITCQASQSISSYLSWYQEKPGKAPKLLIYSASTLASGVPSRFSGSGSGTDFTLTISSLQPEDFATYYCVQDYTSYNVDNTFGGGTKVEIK ?
Outgoing: 4.28e+06 M⁻¹ s⁻¹

Incoming: Which kon value is on record for OA.hu.9H5.H14L4 (antibody, V domains shown, One-armed (OA) monovalent anti-KLK5 antibody with a human IgG1 Fc, with Q38E/Q39K; constant regions and dummy Fc chain not specified) VH: EVQLVESGGGLIQPGGSLRLSCAASGFSLSSYGVSWVRKAPGKGLEYVGFIGSGGFAYYASWAKSRFTISRDNSKNTLYLQMNSLRAEDTAVYYCARDDVGGGKSLDIWGQGTLVTVSS VL: DIQMTQSPSSLSASVGDRVTITCQASQSISSYLSWYQEKPGKAPKLLIYSASTLASGVPSRFSGSGSGTDFTLTISSLQPEDFATYYCHQDYTSSNVDNTFGGGTKVEIK ?
Outgoing: 1.12e+07 M⁻¹ s⁻¹

Incoming: Which kon value is on record for OA.hu.9H5.H14L4.G98Q.S95Y (antibody, V domains shown, One-armed (OA) monovalent anti-KLK5 antibody with a human IgG1 Fc, with Q38E/Q39K; constant regions and dummy Fc chain not specified) VH: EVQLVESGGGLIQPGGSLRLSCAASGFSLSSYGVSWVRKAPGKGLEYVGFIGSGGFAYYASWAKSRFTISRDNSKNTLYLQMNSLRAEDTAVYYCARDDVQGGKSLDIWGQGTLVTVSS VL: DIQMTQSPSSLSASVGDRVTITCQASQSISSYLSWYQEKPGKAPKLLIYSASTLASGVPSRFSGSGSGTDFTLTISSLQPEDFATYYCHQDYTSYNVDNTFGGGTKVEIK ?
Outgoing: 4.02e+06 M⁻¹ s⁻¹
